B1: glmS ribozyme (parent)
chain: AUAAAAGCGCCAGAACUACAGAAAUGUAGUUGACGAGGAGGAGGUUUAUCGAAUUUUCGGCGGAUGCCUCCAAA

Variants of: B1
Assay: self-cleavage kobs at 10000 uM GlcN6P; higher = faster cleavage; RNA array
Details: with glucosamine-6-phosphate
Variants at the floor of the assay were thinned out.
Where self-cleavage kobs at 10000 uM GlcN6P equals or exceeds 0.0002 s⁻¹, the correct label is Criterion met; where it does not, the label is Criterion not met.

Use the examples below as a reference point.
G9A U45G C68U = Criterion not met
G9A C16G G51A G60U = Criterion not met

stdin: Tell me whether self-cleavage kobs at 10000 uM GlcN6P is at least 0.0002 s⁻¹ here: G40A A64G
stdout: Criterion met

stdin: Tell me whether self-cleavage kobs at 10000 uM GlcN6P is at least 0.0002 s⁻¹ here: U45G U57A
stdout: Criterion not met

stdin: Tell me whether self-cleavage kobs at 10000 uM GlcN6P is at least 0.0002 s⁻¹ here: U46G G66A
stdout: Criterion met

stdin: Tell me whether self-cleavage kobs at 10000 uM GlcN6P is at least 0.0002 s⁻¹ here: U56A G59A
stdout: Criterion not met

These measurements were taken from the supplement of paper PMC7125110.
